Reported IC50 on UniProt Q13547 for assorted compounds, compiled from publications.

# example entries with known answers
>>> print(df.to_string())
                                   compound  readoutname        result
0  Cn1c(=O)n(Cc2ccc(-c3nnc(C(F)F)o3)cn2)c(=O)c2ccc(-c3ccco3)cc21         IC50    > 10000 nM
1  Cc1ccc(-c2ccc3c(c2)C(=O)N(Cc2ccc(-c4nnc(C(F)F)o4)cn2)C(=O)C3(C)C)o1         IC50    > 10000 nM
2  O=C(/C=C/c1ccc(CN2CCC3(CC2)OC(=O)Nc2ccccc23)cc1)NO         IC50         32 nM
3  CCC(=O)CCCCC[C@H](NC(=O)C(=O)N1CCN(C)CC1)c1nnc(-c2cc3ccccc3nc2OC)o1         IC50      < 100 nM
4     O=C(NO)c1ccc(Cn2nnc(-c3ccccc3F)n2)cc1         IC50        232 nM
5  O=C(/C=C/c1ccc([C@@H]2CCCN2CCc2ccsc2)cc1)NO         IC50          5 nM
6  CN1CCN(c2ccnc3c2ccn3Cc2ccc(C(=O)NO)cc2)CC1         IC50        180 nM
7  Nc1ccc(-c2ccncc2)cc1NC(=O)c1cnc(N2CCNCC2)cn1         IC50  10 to 500 nM

Short answer please: IC50, UniProt Q13547, entry "CCCCCc1nc2cc(/C=C/C(=O)NO)ccc2n1CCN(CC)CCCO" 50 nM

Consider next the compound "COc1ccc(NC(=O)N2CCC(Nc3ncc(C(=O)NO)cn3)(c3ccccc3)CC2)cc1" in the same way. 21 nM

Consider next the compound "Nc1ccc(-c2ccco2)cc1NC(=O)c1cnc(N2CCNCC2)cn1" in the same way. < 10 nM

Consider next the compound "CCC(=O)CCCCC[C@H](NC(=O)C1CN(C)C1)c1ncc(-c2ccc(-c3ccnn3C)cc2)o1" in the same way. < 100 nM

Consider next the compound "CC(C)N1CCN(Cc2ccc(C(=O)Nc3cc(-c4cccs4)ccc3N)cc2)CC1" in the same way. < 1000 nM

Consider next the compound CCC(=O)CCCCC[C@H](NC(=O)C1CNC(=O)C1)c1ncc(-c2cc3ccccc3nc2OC)o1 (some centres unmarked) in the same way. < 100 nM

Consider next the compound "Cc1c(Cc2ccc(C(=O)NO)cc2)c2ccccc2n1CC1CCN(CC2(F)CCN(C(=O)OC(C)(C)C)CC2)CC1" in the same way. > 10000 nM

Consider next the compound "CCC(=O)CCCCC[C@H](NC(=O)c1cnc(CN2CCCC2)s1)c1ncc(-c2cc3ccccc3nc2OC)o1" in the same way. < 100 nM

Consider next the compound "Nc1ccc(-c2cccs2)cc1NC(=O)c1ccc(OCCO)cn1" in the same way. 1 to 10 nM

* * *

Reported IC50 on Histone deacetylase 1 (Homo sapiens, UniProt Q13547) for assorted compounds, compiled from publications.

In [3]: df
Out[3]:
                                   compound      result
0  O=c1c(N2CCS(=O)(=O)CC2)c(N(Cc2ccc(-c3nnc(C(F)F)o3)cc2)c2ccccc2)c1=O  > 10000 nM
1  CN1CCN(c2ccc3c(c2)C(C)(C)C(=O)N(Cc2ncc(-c4nnc(C(F)F)o4)cn2)C3=O)CC1  > 10000 nM
2  Nc1ccc(-c2cccs2)cc1NC(=O)c1ccc2[nH]cnc2c1  1 to 10 nM

# evaluate next
Dear colleague, I am looking for the recorded IC50 of the following compound: O=C(NO)c1ccc(Cn2ccc(C3(c4ccc(F)cc4)CCCO3)cc2=O)cc1 (single isomer, unassigned) 50 to 200 nM

* * *

Reported IC50 on Histone deacetylase 1 (Homo sapiens, UniProt Q13547) for assorted molecules, compiled from publications.

In [3]: df
Out[3]:
                      structuresmilesstring        result
0  CCC(=O)CCCCC[C@H](NC(=O)Cn1cnc2ccccc21)c1ncc(-c2cc3ccccc3nc2OC)o1      < 100 nM
1  O=C(NO)c1ccc2ccn(CCOc3cccc(CN4CCOCC4)c3)c2c1    > 10000 nM
2  O=C(NO)c1ccc(Cn2ccc3cc(C4CCN(Cc5ncccn5)CC4)cnc32)cc1        850 nM
3  Nc1ccc(-c2ccccn2)cc1NC(=O)c1cnc(N2CCNCC2)s1  10 to 500 nM
4     O=C(CCCCCCN(c1cnccn1)c1ncnc2occc12)NO     > 1000 nM

Short answer please: IC50, Histone deacetylase 1 (Homo sapiens, UniProt Q13547), entry "Nc1ccc(-c2ccncc2)cc1NC(=O)c1ccc(N2CCNCC2)s1" < 10 nM

Consider next the molecule "CCC(=O)CCCCC[C@H](NC(=O)c1sc(C)nc1C)c1ncc(-c2cc3ccccc3nc2OC)o1" in the same way. < 100 nM

Consider next the molecule "CC(C)(O)CN1CC2(CCN(c3ccnc4c3ccn4Cc3ccc(C(=O)NO)cc3)CC2)C1" in the same way. 170 nM

* * *

Reported pIC50 on UniProt:Q13547 for assorted compounds, compiled from publications.
pIC50: −log10 of the molar value.

# example entries with known answers
                                   compound  result
0   Nc1ccccc1NC(=O)c1ccc2c(cnn2Cc2cccnc2)c1  > 6.00
1  Nc1ccc(-c2ccncc2)cc1NC(=O)c1ncc(N2CCNCC2)s1  > 8.00
2  O=c1c(N2CCOCC2)c(N(Cc2ccc(-c3nnc(C(F)F)o3)cc2F)c2ccccc2)c1=O  < 5.00
3             O=C(/C=C/c1ccccc1Oc1ccncc1)NO  < 5.00
4  CN1CCN(c2ccc(-c3ccc(S(=O)(=O)N4C=CC(C(=O)NO)CC4)cc3)cc2)CC1 (stereo not shown)  > 7.00

Short answer please: pIC50, UniProt:Q13547, entry "Nc1ccc(-c2ccoc2)cc1NC(=O)c1nc(N2CCNCC2)cs1" 6.30 to 8.00

Consider next the compound "CCC(=O)CCCCC[C@H](NC(=O)C1CN(Cc2ccccc2)C1)c1ncc(-c2cc3ccccc3nc2OC)o1" in the same way. > 7.00
